# Tested on: HOP-62 NSCLC
# Test Details: NCI tumour cell line growth inhibition, 48 h
Endpoint Name: TGI

Molecule: O=C(Nc1nc2ccccc2n1Cc1ccc(Cl)cc1)NC12CC3CC(CC(C3)C1)C2
Study Target: HOP-62 NSCLC
Endpoint Name: TGI
Value Measured: 37.3 µM
//
Molecule: CCOC(CI)O[C@@H]1C=C[C@H](OC(C)=O)C1 (some centres not stated)
Study Target: HOP-62 NSCLC
Endpoint Name: TGI
Value Measured: > 100 µM
//
Molecule: O=C(Nc1nnc(-c2c(Cl)c(Cl)c(Cl)c(Cl)c2-c2nc3cc(C(=O)c4ccccc4)ccc3[nH]2)o1)c1ccccc1
Study Target: HOP-62 NSCLC
Endpoint Name: TGI
Value Measured: 26.3 µM
//
Molecule: Cc1ccsc1C(=O)C(CC(=O)c1cccs1)c1ccsc1 (configuration not stated)
Study Target: HOP-62 NSCLC
Endpoint Name: TGI
Value Measured: > 100 µM
//
Molecule: Nc1nc(Cl)cc(NCC2(CO)CCC(O)C2)n1 (configuration not stated)
Study Target: HOP-62 NSCLC
Endpoint Name: TGI
Value Measured: > 100 µM
//
Molecule: CC(=O)C1C(=O)C(=O)N(c2ccccc2N2C(=O)C(=O)C(C(C)=O)C2=O)C1=O (configuration not stated)
Study Target: HOP-62 NSCLC
Endpoint Name: TGI
Value Measured: > 100 µM
//
Molecule: COc1cc2c(c(OC)c1OC)-c1ccc(SC)c(=O)cc1[C@@H](NCc1cccc(C#N)c1)CC2
Study Target: HOP-62 NSCLC
Endpoint Name: TGI
Value Measured: > 75 µM
//
Molecule: CCc1ccc(Nc2cc(=O)[nH]c(=S)n2C)cc1
Study Target: HOP-62 NSCLC
Endpoint Name: TGI
Value Measured: > 100 µM
//
Molecule: Cc1ccc(S(=O)(=O)SCc2ccccc2CSS(=O)(=O)c2ccc(C)cc2)cc1
Study Target: HOP-62 NSCLC
Endpoint Name: TGI
Value Measured: > 100 µM
//
Molecule: COc1cc2ccnc3c2c(c1OC)-c1ccc(=O)ccc1-3
Study Target: HOP-62 NSCLC
Endpoint Name: TGI
Value Measured: > 100 µM
//
Molecule: NCCCC1NC(=O)/C(=C(O)/C=C/C2CCC[C@@H]2CC2SCCS2)C1=O (some centres not stated)
Study Target: HOP-62 NSCLC
Endpoint Name: TGI
Value Measured: > 100 µM
//
Molecule: O=C1Nc2cc([N+](=O)[O-])ccc2C(=O)N2CCC[C@@H]12
Study Target: HOP-62 NSCLC
Endpoint Name: TGI
Value Measured: > 100 µM
//
Molecule: CCOC(=O)C(Cc1ccccc1)NC(=O)OC(C)(C)C (configuration not stated)
Study Target: HOP-62 NSCLC
Endpoint Name: TGI
Value Measured: > 100 µM
//
Molecule: Cc1nc2ccccc2c(=O)n1NC(=S)Nc1cccc(Cl)c1
Study Target: HOP-62 NSCLC
Endpoint Name: TGI
Value Measured: > 100 µM
//
Molecule: N#Cc1cccc(/C=C(/C(=O)c2ccccc2)c2ccccc2)c1
Study Target: HOP-62 NSCLC
Endpoint Name: TGI
Value Measured: 13.5 µM
//
Molecule: CC1(Br)C(=O)NC(=O)N(C2CC(N=[N+]=[N-])C(CO)O2)C1N=[N+]=[N-] (configuration not stated)
Study Target: HOP-62 NSCLC
Endpoint Name: TGI
Value Measured: > 100 µM
//
Molecule: COc1c(C)c(C/C=C(\C)CCCCO)c(OC)c(OC)c1OC
Study Target: HOP-62 NSCLC
Endpoint Name: TGI
Value Measured: > 100 µM
//
Molecule: COc1cc2nc(N3CCCC3)nc(Nc3ccccc3)c2cc1OC
Study Target: HOP-62 NSCLC
Endpoint Name: TGI
Value Measured: 4.2 µM
//
Molecule: COc1ccc([C@H]2C=C(c3cc(F)c(Cl)cc3Cl)NC(=S)N2)cc1
Study Target: HOP-62 NSCLC
Endpoint Name: TGI
Value Measured: > 100 µM
//
Molecule: CC1(C)N=C(N)N=C(N)N1c1cccc(CCCCc2ccccc2)c1
Study Target: HOP-62 NSCLC
Endpoint Name: TGI
Value Measured: 22.2 µM
//
Molecule: CCOC(=O)c1ccc(Nc2sc(C(=O)c3cccc([N+](=O)[O-])c3)c(N)c2C#N)cc1
Study Target: HOP-62 NSCLC
Endpoint Name: TGI
Value Measured: 6.39 µM
//
Molecule: CN1CCCC1=NC#N
Study Target: HOP-62 NSCLC
Endpoint Name: TGI
Value Measured: > 100 µM
